Test: Adsorption / entrapment of solid and liquid materials on POLYPORE E 200 microparticles (Example 1)
Type: physicochemical
Conditions: adsorbed on microparticles of Example 1 (POLYPORE E 200)
Values of Total (g/g) adsorbed greater than or equal to 10 g/g map to 1 (yes); values below map to 0 (no).

Field: example entries. Status: answers known.
Compound	Category
CC(=O)Oc1c(C)c(C)c2c(c1C)CCC(C)(CCC[C@H](C)CCC[C@H](C)CCCC(C)C)O2 (stereo partly drawn) [Vitamin E Acetate]	0 (no)
CCCCCCCCCCCCCC(=O)OC(C)C [Isopropyl Myristate]	1 (yes)
OCC(O)CO [Glycerin]	0 (no)

Determine whether measured Total (g/g) adsorbed meets or exceeds 10 g/g for COc1ccc(C(=O)c2ccccc2)c(O)c1 [Benzophenone-3]
1 (yes)

Determine whether measured Total (g/g) adsorbed meets or exceeds 10 g/g for CC(=O)OCc1ccccc1 [Benzyl Acetate]
1 (yes)

----------
Assay: Adsorption / entrapment of solid and liquid active agents on POLYPORE L 200 microparticles (Example 2)
Type: physicochemical
Conditions: adsorbed on microparticles of Example 2 (POLYPORE L 200)
Measured Free-Flowing (g/g) adsorbed of individual entries
Just the number in g/g, nothing appended.

Guide cases for Free-Flowing (g/g) adsorbed, answers given:
Molecule	Unit Annotation	Free-Flowing (g/g) adsorbed
CC(=O)Oc1c(C)c(C)c2c(c1C)CCC(C)(CCC[C@H](C)CCC[C@H](C)CCCC(C)C)O2 (some centres unmarked) [Vitamin E Acetate]	g/g	7.0
CCCCCCCCCCCCCC(=O)OC(C)C [Isopropyl Myristate]	g/g	9.5
COc1ccc(C(=O)c2ccccc2)c(O)c1 [Benzophenone-3]	g/g	9.1
OCC(O)CO [Glycerin]	g/g	7.6

Now turn to the next molecule.
Record CC(=O)OCc1ccccc1 [Benzyl Acetate] , field Free-Flowing (g/g) adsorbed: 9.9

----------
Test: Adsorption / entrapment of solid and liquid active agents on POLYPORE L 200 microparticles (Example 2)
Format: physicochemical
Conditions: adsorbed on microparticles of Example 2 (POLYPORE L 200)
Threshold check on Total (g/g) adsorbed: strictly below 10 g/g is 1 (yes); on or above 10 g/g is 0 (no).

Field: example entries. Status: answers known.
Compound	Category
CC(=O)Oc1c(C)c(C)c2c(c1C)CCC(C)(CCC[C@H](C)CCC[C@H](C)CCCC(C)C)O2 (stereo partly drawn) [Vitamin E Acetate]	1 (yes)
COc1ccc(C(=O)c2ccccc2)c(O)c1 [Benzophenone-3]	0 (no)
Oc1cc(Cl)ccc1Oc1ccc(Cl)cc1Cl [IRGASAN DP 300, 5-chloro-2-(2,4-dichlorophenoxy)phenol]	0 (no)
CCCCCCCCCCCCCC(=O)OC(C)C [Isopropyl Myristate]	0 (no)

Please examine the following record next.
Please state whether Total (g/g) adsorbed is below 10 g/g for CC(=O)OCc1ccccc1 [Benzyl Acetate]
0 (no)

----------
Assay: Adsorption / entrapment of solid and liquid materials on POLYPORE E 200 microparticles (Example 1)
Type: physicochemical
Settings: adsorbed on microparticles of Example 1 (POLYPORE E 200)
Values of Free-Flowing (g/g) adsorbed greater than or equal to 6 g/g map to Yes; values below map to No.

Molecule	Category
CCCCCCCCCCCCCC(=O)OC(C)C [Isopropyl Myristate]	Yes
CC(=O)OCc1ccccc1 [Benzyl Acetate]	Yes

Determine whether measured Free-Flowing (g/g) adsorbed meets or exceeds 6 g/g for COc1ccc(C(=O)c2ccccc2)c(O)c1 [Benzophenone-3]
Yes

Determine whether measured Free-Flowing (g/g) adsorbed meets or exceeds 6 g/g for CC(=O)Oc1c(C)c(C)c2c(c1C)CCC(C)(CCC[C@H](C)CCC[C@H](C)CCCC(C)C)O2 (some centres unmarked) [Vitamin E Acetate]
No
